Below: a set of entries, each annotated with reported self-cleavage.
B1: LINE1-mini (parent)
chain: GGCAGAGCUCAACACAGCGUGGCAAAGUGGCUGUGGCUAGACUGCC

- Variants of: B1
- assayText: self-cleavage, relative activity (ratio to wild type); higher = more cleavage; in vitro, sequencing; the parent is a self-cleaving ribozyme
Respond with the number and no other words.

• G33U G36A = 0.08
• C8U A26G = 0.29
• G27C U38C = 0.29

Recall and state the measured self-cleavage for U20A C31G . 0.08

Please give measured self-cleavage of the following entry: G40C C46U 0.08

// fetch self-cleavage given entry A26G U34C 0.08
